Listing: inhibition in vivo at 3 mg/kg of selected compounds
- System: Indomethacin ulcer
- assay: Anti-ulcer activity: Indomethacin ulcer
- Assay type: in vivo, Wistar strain rats
- cond: Rattus norvegicus; 3 mg/kg, oral; read-out: Inhibition percentage
- Method: Six Wistar strain rats (male, 200 to 250 g) per group were starved for 24 hours, after which each drug was orally administered, and after 30 minutes, Indomethacin was injected subcutaneously at a dose of 30 mg/kg. After 5 hours, each rat was killed, and the stomach was removed and fixed with 3% formalin, after which the lengths of ulcers formed in the stomach was measured under the binocular stereoscopic microscope (10×), and the sum total of the lengths was taken as the ulcer index. […]
Please reply with the bare figure in % and do not write the unit itself.

// worked examples, inhibition in vivo at 3 mg/kg included
Cc1cc(CSCCNC(=C[N+](=O)[O-])NCC(O)c2cccc(Br)c2)sc1CN(C)C (stereo not shown)    72
COc1cccc(C(O)CNC(=C[N+](=O)[O-])NCCSCc2cc(C)c(CN(C)C)s2)c1 (stereo not shown)    85
CN(C)Cc1ccc(CSCCNC(=C[N+](=O)[O-])NCC(O)c2ccc(O)cc2)o1 (stereo not shown)    51

We next turn to a different compound, shown below.
Task item: # lookup: Indomethacin ulcer inhibition in vivo at 3 mg/kg, key = O=[N+]([O-])C=C(NCCCOc1cccc(CN2CCCCC2)c1)NCC(O)c1ccc(F)cc1 (stereo not shown)
Reply: 92

###

inhibition in vivo at 10 mg/kg values for the compounds below.
- Tested on: Indomethacin ulcer
- assay: Anti-ulcer activity: Indomethacin ulcer
- Assay type: in vivo, Wistar strain rats
- cond: Rattus norvegicus; 10 mg/kg, oral; read-out: Inhibition percentage
Just the number in %, nothing appended.

Use the examples below as a reference point.
O=[N+]([O-])C=C(NCCCOc1cccc(CN2CCCCC2)c1)NCC(O)c1ccc(F)cc1 (stereo not shown)    98
COc1cccc(C(O)CNC(=C[N+](=O)[O-])NCCSCc2cc(C)c(CN(C)C)s2)c1 (stereo not shown)    97
CN(C)Cc1ccc(CSCCNC(=C[N+](=O)[O-])NCC(O)c2ccc(O)cc2)o1 (stereo not shown)    71

// moving on: another record for inhibition in vivo at 10 mg/kg
Task item: Quick one: give measured inhibition in vivo at 10 mg/kg for CNC(=C[N+](=O)[O-])NCCSCc1ccc(CN(C)C)o1 [Ranitidine, reference compound]
Reply: 18
